Measured values drawn from PubChem BioAssay (NCI) for this set.

Tested on: SF-268 CNS
TEST_PROTOCOL: NCI-60 one-dose screen, 48 h (100 = growth as untreated, 0 = no growth, -100 = all killed)
CONDITION_CONTEXT: 10 µM unless noted
Compounds without any hit were thinned out: in the full panel of roughly 83,000, 20% have a hit.
molecules and their reported growth
OUTCOME_MEASURE: growth (%)

>>> df
                           smiles_structure  obs_value
0  O=C(NO)c1ccc(Cn2c(=O)n(CCc3ccc(O)cc3)c(=O)c3ccccc32)cc1       59.2
1  CC(C)=CCC/C(C)=C/CC/C(C)=C/CSC[C@H](NC(=O)CCCCCN1CCN(C)CC1)C(=O)NC1CCCCCC1       75.1
2  NC1=NN=C2N(N)C(=O)c3cnn(-c4ccccc4)c3N2c2nc(-c3ccccc3)cc(-c3ccccc3)c21        105
3  Cn1cc(-c2csc(-c3cn(C(=O)OC(C)(C)C)c4ccc(Br)cc34)n2)c2cccnc21       94.7

* * *

System: UO-31 renal
TEST_PROTOCOL: NCI-60 one-dose screen, 48 h (100 = growth as untreated, 0 = no growth, -100 = all killed)
CONDITION_CONTEXT: 10 µM unless noted
The panel holds about 83,000 compounds, 20% with a hit somewhere; the sample as a whole holds those more often.
molecules and their reported growth
OUTCOME_MEASURE: growth (%)

MOLECULE	OUTCOME_MEASURE	OBS_VALUE
O=C(NC(Cc1cn(Cc2ccccc2)cn1)C(=O)O)OCC1c2ccccc2-c2ccccc21 (stereo not given)	growth	85.1
COc1ccc(/C(=C\c2ccc3c(c2)OCO3)C(=O)Nc2nc3ccccc3s2)cc1OC	growth	-6.51
N#CC1=C(N)Oc2c(c(N)nn2-c2ccccc2)C1c1ccc(Cl)cc1 (stereo not given)	growth	61.2
COc1cccc(-c2nn(-c3ccccc3)cc2-c2ccnc(NCCCNS(=O)(=O)c3cccc(F)c3)c2)c1	growth	9.64
O=C(N/N=C\c1c(O)ccc2ccccc12)C1CC1	growth	8.64
COc1ccc2c3c(c4ccccc4cc13)C(=O)N(CCN(C)CCN)C2=O	growth	-83.7
C#CCC(C)(O)/C=C/C1=C(C)CCCC1(C)C (stereo not given)	growth	91.3
COc1ccccc1-n1cnc(N)c1C(=O)c1cc(OC)c(OC)c(OC)c1	growth	55.2
CCN1CCN(C(=O)[C@]23CC[C@@H](C)[C@H](C)[C@H]2C2=CC[C@@H]4[C@@]5(C)C/C(=C/c6cccc(OC)c6OC)C(=O)C(C)(C)[C@@H]5CC[C@@]4(C)[C@]2(C)CC3)CC1	growth	30.3
O=C1C=Cc2ncccc2C1=O	growth	68.3

* * *

Tested on: SK-MEL-5 melanoma
TEST_PROTOCOL: NCI-60 one-dose screen, 48 h
CONDITION_CONTEXT: 10 µM unless noted
Compounds without any hit were thinned out: in the full panel of roughly 83,000, 20% have a hit. The source made the active and inactive calls. Rule for the calls: active = growth percent below 10; inactive = the rest.
Outcomes: active, inactive

COMPOUND	LABEL_CLASS
Cc1ccc(-c2ccc(/C=C(\C#N)c3nc(-c4ccco4)cs3)o2)cc1	inactive
Cc1cc(C)nc(NC(N)=NCCc2ccccc2)n1	inactive
C[C@@H]1CCCCCCCCC[C@H](O)C(=O)C[C@@H](SC[C@@H](O)C(=O)O)C(=O)O1	inactive
Brc1cnc2[nH]cc(-c3nnc(-c4ccccc4)o3)c2c1	inactive
COc1cccc(-c2nn(-c3ccccc3)cc2-c2ccnc(NCCCO)c2)c1	inactive
N#C/C(=C\c1ccc(-c2ccc(Br)cc2)o1)c1nc(-c2ccco2)cs1	inactive
C=C(C)[C@@H]1CC[C@]2(CN)CC[C@]3(C)[C@H](CC[C@@H]4[C@@]5(C)CCC(=O)NC(C)(C)[C@@H]5CC[C@]43C)[C@@H]12	inactive
Cc1[c-]onc1C.Cc1[c-]onc1C.[Ag].[Ag].[NH-]S(=O)(=O)c1ccc(N=Nc2cc(N=Nc3ccc(S([NH-])(=O)=O)cc3)c3c(NC(=O)C(Cl)Cl)cccc3c2OC(=O)C(Cl)Cl)cc1	inactive
CCNCCCn1c2c(c3ccc([N+](=O)[O-])cc3c1=O)C(=O)c1cc(OC)cnc1-2	active
COc1ccc(C2c3ccccc3NC(=O)N2C2CCN(C)CC2)c(OC)c1 (stereo not drawn)	inactive
Cn1c2c(c3ccc(Cl)cc31)-n1cccc1C2=O	inactive
CC(c1ccccc1)N1C(=O)C(C2SC(=S)N(C(C)c3ccccc3)C2=O)SC1=S (stereo not drawn)	inactive
COc1cccc(-c2nn(-c3ccccc3)cc2-c2ccnc(NCCNS(=O)(=O)c3ccc(Cl)cc3)c2)c1	active
COc1ccc(-c2cc(-c3c(C)oc4cc5occc5c(OC)c4c3=O)nc(N)c2C#N)cc1OC	inactive
O=c1[nH]c2c3ccncc3cc(-c3cccc(Cl)c3)c2c2cnccc12	inactive
NC1=NN=C2N(N)C(=O)c3cnn(-c4ccccc4)c3N2c2nc(-c3ccccc3)cc(-c3ccccc3)c21	inactive
N#CC1C(=N)Cc2ccccc2-c2ccccc21 (stereo not drawn)	inactive
CC1(C)CC[C@]2(C(=O)NCCNCCN)CC[C@]3(C)C(=CC[C@@H]4[C@@]5(C)CCC(=O)C(C)(C)[C@@H]5CC[C@]43C)[C@@H]2C1	inactive

* * *

molecules and their reported growth
Tested on: HCC-2998 colon
TEST_PROTOCOL: NCI-60 one-dose screen, 48 h (100 = growth as untreated, 0 = no growth, -100 = all killed)
CONDITION_CONTEXT: 10 µM unless noted
This is part of a sample that, as a whole, favours compounds with a hit. Of some 83,000 tested, about 20% had one in any assay.
OUTCOME_MEASURE: growth (%)

MOLECULE	OBS_VALUE
c1ccc2[nH]c(-c3ccc(Nc4nc(N5CCCCC5)nc(N5CCOCC5)n4)cc3)nc2c1	-1.07
COc1ccc(-n2c(/C=C/c3ccc(O)c(OC)c3)cc(/C=C/c3ccc(O)c(OC)c3)nc2=O)cc1	94.9
CCSc1ncnc2c1ncn2C1OC(CO)C(O)C1O (stereo not drawn)	8.16
COc1cnc2c(c1)C(=O)c1c-2n(CCCN2CCN(CCO)CC2)c(=O)c2cc([N+](=O)[O-])ccc12	80
O=[N+]([O-])c1ccc(/C=N\Nc2ccccc2)cc1	96.6
CCN1CCN(C(=O)[C@]23CC[C@@H](C)[C@H](C)[C@H]2C2=CC[C@@H]4[C@@]5(C)C/C(=C/c6cccc(OC)c6OC)C(=O)C(C)(C)[C@@H]5CC[C@@]4(C)[C@]2(C)CC3)CC1	44.6
COC(=O)[C@]12CC[C@@H](C)[C@H](C)[C@@H]1C1=CC[C@@H]3[C@@]4(C)C[C@@H](O)OC[C@](C)(C=O)C4C(=O)C[C@@]3(C)[C@]1(C)CC2 (stereo partly drawn)	6.06
Cn1cc(-c2nc(-c3cn(C)c4ncccc34)cs2)c2ccccc21	67.4

* * *

Tested on: MDA-MB-435 melanoma
TEST_PROTOCOL: NCI-60 one-dose screen, 48 h
CONDITION_CONTEXT: 10 µM unless noted
About 83,000 compounds went through this panel and 20% of them were active in at least one assay; those are over-represented in the sample as a whole. Active and inactive are the calls of the source. The calls were made as follows: active = growth percent below 10; inactive = the rest.
Outcomes: active, inactive

SMILES_STRUCTURE	LABEL_CLASS
C[Si](C)(C)Cc1ccccc1	inactive
C=C(C)[C@@H]1CC[C@]2(C(=O)N3CCCNCC3)CC[C@]3(C)[C@H](CC[C@@H]4[C@@]5(C)CCC(=O)C(C)(C)[C@@H]5CC[C@]43C)[C@@H]12	inactive
CCN(CC)c1ccc(/C=C/c2cc(C)c3ccccc3n2)cc1	active
C=C(C)[C@@H]1CC[C@]2(C(=O)O)CC[C@]3(C)[C@H](CC[C@@H]4[C@@]5(C)C/C(=C/c6ccc(OC)cc6)C(=O)C(C)(C)[C@@H]5CC[C@]43C)[C@@H]12	inactive
O=C1CCC/C=C\C[C@H]2C=C(Cl)C(=O)/C2=C/C[C@H](CCCCC(F)(F)F)OC(=O)CCC/C=C\C[C@H]2C=C(Cl)C(=O)/C2=C/C[C@H](CCCCC(F)(F)F)O1	active
CCSc1sc(-c2ccc(C)cc2)nc1[P+](c1ccccc1)(c1ccccc1)c1ccccc1	active
COC(=O)[C@]12CC[C@@H](C)[C@H](C)[C@@H]1C1=CC[C@@H]3[C@@]4(C)C[C@@H](OC(C)=O)[C@H](O)[C@@](C)(COC(C)=O)[C@@H]4[C@H](O)C[C@@]3(C)[C@]1(C)CC2	active

* * *

Tested on: HOP-62 NSCLC
TEST_PROTOCOL: NCI-60 one-dose screen, 48 h
CONDITION_CONTEXT: 10 µM unless noted
About 83,000 compounds went through this panel and 20% of them were active in at least one assay; those are over-represented in the sample as a whole. Calls of active or inactive are those of the source. Rule for the calls: active = growth percent below 10; inactive = the rest.
Outcomes: active, inactive

COMPOUND	LABEL_CLASS
CCc1ccc(-c2ccc(Nc3ccccc3)nn2)cc1S(N)(=O)=O	inactive
C/C(=N\Nc1cc(C)c2ccccc2n1)c1ccccn1	inactive
OCC12CCCC(CO)(COC1)C2O (stereo unspecified)	inactive
CCN1CCN(C(=O)[C@]23CCC(C)(C)C[C@@H]2C2=CC[C@@H]4[C@@]5(C)C/C(=C/c6cccnc6)C(=O)C(C)(C)[C@@H]5CC[C@@]4(C)[C@]2(C)CC3)CC1	inactive
CCC(=O)c1c(C)[nH]c(C)c1C	inactive
Oc1ccccc1/C=N\NC(=S)Nc1ccc(F)cc1	inactive
C#CCn1c(C)cc(C)c(C#N)c1=O	inactive
Cc1ccncc1C(=O)O	inactive
COc1ccc(OC)c(-c2c(C#N)c(-c3ccco3)nc3c2c(-c2ccccc2)nn3-c2ccccc2)c1	inactive
COc1ccc(C(=O)c2ccc(C)cc2)c(OC)c1OC	inactive
Cc1[c-]onc1C.Cc1[c-]onc1C.[Ag].[Ag].[NH-]S(=O)(=O)c1ccc(N=Nc2cc(N=Nc3ccc(S([NH-])(=O)=O)cc3)c3c(NC(=O)C(Cl)Cl)cccc3c2OC(=O)C(Cl)Cl)cc1	inactive
O=C(NC(Cc1cn(Cc2ccccc2)cn1)C(=O)O)OCC1c2ccccc2-c2ccccc21 (stereo unspecified)	inactive
CC(c1ccccc1)N1C(=O)C(C2SC(=S)N(C(C)c3ccccc3)C2=O)SC1=S (stereo unspecified)	inactive
COc1cc2[nH]c(C(=O)c3cc(OC)c(OC)c(OC)c3)c(N)c2cc1C#CCO	inactive
N#CCCCCCn1c2ccccc2c2c3[nH]c(=O)[nH]c(=O)c3c3c4ccccc4n(CCCCCC#N)c3c21	inactive
CC(=O)OCCCCCCn1c2ccccc2c2c3c(c4c5ccccc5n(C)c4c21)C(=O)N(O)C3=O	inactive
COC(=O)c1cc(=O)nc(N/N=C/c2ccc(C)cc2)s1	inactive
N=C(N)c1ccc(-c2ccc(-c3cc(F)cc(F)c3)o2)nc1	inactive
COc1ccc(C2c3ccccc3NC(=O)N2C2CCN(C)CC2)c(OC)c1 (stereo unspecified)	inactive
NC(=O)[C@@H]1CC2CCC1C2 (stereo partly specified)	inactive
COc1cc(-c2cc(-c3nc4ccc(F)cc4[nH]3)[nH]n2)cc(OC)c1OC	active
